Target Desc: Fatty acid-binding protein, adipocyte (Homo sapiens)
Assay Text: Displacement of 1,8-ANS from FABP4 (unknown origin) at 25 uM incubated for 3 mins by fluorescence based analysis relative to control
Sequence (P15090 2-132 limits assumed): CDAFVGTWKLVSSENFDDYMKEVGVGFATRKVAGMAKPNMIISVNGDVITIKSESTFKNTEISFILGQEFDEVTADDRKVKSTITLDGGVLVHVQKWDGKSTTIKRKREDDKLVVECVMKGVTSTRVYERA
Quantity Kind: inhibition (%)

[
  {
    "Smiles": "O=C(O)c1cc(NS(=O)(=O)c2ccc(-c3ccc(F)c(Cl)c3)c3ccccc23)ccc1F",
    "Target Desc": "Fatty acid-binding protein, adipocyte (Homo sapiens)",
    "Test Value": 78
  },
  {
    "Smiles": "O=C(O)c1cc(NS(=O)(=O)c2ccc(-c3ccc(F)cc3F)c3ccccc23)ccc1F",
    "Target Desc": "Fatty acid-binding protein, adipocyte (Homo sapiens)",
    "Test Value": 85
  },
  {
    "Smiles": "COc1c(-c2ccccc2O)cc(S(=O)(=O)Nc2ccc(F)c(CC(=O)O)c2)c2ccccc12",
    "Target Desc": "Fatty acid-binding protein, adipocyte (Homo sapiens)",
    "Test Value": 86
  },
  {
    "Smiles": "COc1c(-c2ccc(F)cc2Cl)cc(S(=O)(=O)Nc2ccc(F)c(CC(=O)O)c2)c2ccccc12",
    "Target Desc": "Fatty acid-binding protein, adipocyte (Homo sapiens)",
    "Test Value": 90
  },
  {
    "Smiles": "O=C(O)c1cc(NS(=O)(=O)c2ccc(-c3ccc(F)cc3Cl)c3ccccc23)ccc1F",
    "Target Desc": "Fatty acid-binding protein, adipocyte (Homo sapiens)",
    "Test Value": 86
  }
]

a. COc1c(-c2ccccc2C)cc(S(=O)(=O)Nc2ccc(F)c(CC(=O)O)c2)c2ccccc12
b. COc1c(-c2ccccc2C(F)(F)F)cc(S(=O)(=O)Nc2ccc(F)c(CC(=O)O)c2)c2ccccc12
Exercise: compare a and b ; which one has the greater inhibition? Kindly state the label of the option you pick.
a

###

Target Desc: Fatty acid-binding protein, adipocyte (Homo sapiens)
Quantity Kind: IC50 (µM)

[
  {
    "Smiles": "COc1c(-c2ccccc2O)cc(S(=O)(=O)Nc2ccc(F)c(CC(=O)O)c2)c2ccccc12",
    "Target Desc": "Fatty acid-binding protein, adipocyte (Homo sapiens)",
    "IC50 [µM]": 8.03
  },
  {
    "Smiles": "O=C(O)c1cc(NS(=O)(=O)c2ccc(-c3ccc(F)c(Cl)c3)c3ccccc23)ccc1F",
    "Target Desc": "Fatty acid-binding protein, adipocyte (Homo sapiens)",
    "IC50 [µM]": 7.84
  }
]

a. COc1c(-c2ccccc2Cl)cc(S(=O)(=O)Nc2ccc(F)c(CC(=O)O)c2)c2ccccc12
b. COc1c(-c2ccc(F)cc2Cl)cc(S(=O)(=O)Nc2ccc(F)c(CC(=O)O)c2)c2ccccc12
Exercise: compare a and b ; which one has the greater IC50? Kindly state the label of the option you pick.
a

###

Target Desc: Fatty acid-binding protein, adipocyte (Homo sapiens, UniProt P15090)
Assay Text: Displacement of 1,8-ANS from FABP4 (unknown origin) at 25 uM incubated for 3 mins by fluorescence based analysis relative to control
Quantity Kind: inhibition (%)

[
  {
    "Smiles": "CC(C)c1ccccc1-c1ccc(S(=O)(=O)Nc2ccc(F)c(C(=O)O)c2)c2ccccc12",
    "Quantity Kind": "inhibition",
    "U": "%",
    "Test Value": 74
  },
  {
    "Smiles": "COc1c(-c2ccc(F)cc2F)cc(S(=O)(=O)Nc2ccc(F)c(CC(=O)O)c2)c2ccccc12",
    "Quantity Kind": "inhibition",
    "U": "%",
    "Test Value": 96
  },
  {
    "Smiles": "COc1c(-c2ccc(F)cc2C)cc(S(=O)(=O)Nc2ccc(F)c(CC(=O)O)c2)c2ccccc12",
    "Quantity Kind": "inhibition",
    "U": "%",
    "Test Value": 94
  }
]
